Each entry below carries its recorded IC50.
# Tested on: MCF-7 cells
# assay-remarks: In vitro cytotoxicity, MTT assay, MCF-7
# Format: cell-based, human
# stated-conditions: MCF-7 (breast cancer), 48 h continuous drug exposure
Write down the numeric answer in µM and omit the unit.

• COc1cc(/C=C\c2cc(OC)c(OC)c(OC)c2)cc(N/C=C\C(=O)c2ccc(OC(F)(F)F)cc2)c1OC [Compound 11o] = 5.75

Next up:
Problem: // lookup IC50 for COc1ccc(/C=C\c2cc(OC)c(OC)c(OC)c2)cc1OP(=O)(O)O [Ca-4, Combretastatin, reference compound]
Solution: 0.58

---

# Test system: HeLa cells
# assay-remarks: In vitro cytotoxicity, MTT assay, HeLa
# Format: cell-based, human
# stated-conditions: Homo sapiens, HeLa (cervical carcinoma), 48 h continuous drug exposure
Each entry below carries its recorded IC50.
Write down the numeric answer in µM and omit the unit.

Sample answers from the record:
• COc1cc(/C=C\c2ccc(OC)c(N)c2)cc(OC)c1 [S4 (Ca-4 amine), reference compound] = 0.58
• COc1ccc(C=Cc2cc(OC)c(OC)c(OC)c2)cc1N/C=C\C(=O)c1cn(C)c2ccccc12 [Compound 10w] = 0.46
• COc1ccc(/C=C\c2cc(OC)c(OC)c(OC)c2)c(N/C=C\C(=O)c2ccc(OC(F)(F)F)cc2)c1O [Compound 16o] = 7.08
• COc1ccc(/C=C\c2cc(OC)c(OC)c(OC)c2)cc1N/C=C\C(=O)c1cc(OC)c(OC)c(OC)c1Br [Compound 10y] = 0.25
• COc1cc(/C=C\c2cc(OC)c(OC)c(OC)c2)cc(N/C=C\C(=O)c2ccc(OC(F)(F)F)cc2)c1OC [Compound 11o] = 1.86

Problem: // lookup IC50 for COc1ccc(/C=C\c2cc(OC)c(OC)c(OC)c2)cc1N/C=C\C(=O)c1ccc(OC)c([N+](=O)[O-])c1 [Compound 10t]
Solution: 0.21

Problem: // lookup IC50 for COc1ccc(/C=C\c2cc(OC)c(OC)c(OC)c2)c(N/C=C\C(=O)c2cc(OC)c(OC)c(OC)c2Br)c1O [Compound 16y]
Solution: 1.78

Problem: // lookup IC50 for COc1cc(/C=C\c2cc(OC)c(OC)c(OC)c2)cc(N/C=C\C(=O)c2cc(OC)c(OC)c(OC)c2)c1OC [Compound 11x]
Solution: 3.72

Problem: // lookup IC50 for COc1cc(C=Cc2cc(OC)c(OC)c(OC)c2)cc(N/C=C\C(=O)c2c[nH]c3ccccc23)c1OC [Compound 11v]
Solution: 0.67

Problem: // lookup IC50 for COc1ccc(C(=O)/C=C\Nc2cc(/C=C\c3cc(OC)c(OC)c(OC)c3)cc(OC)c2OC)cc1N [Compound 11u]
Solution: 4.27

Problem: // lookup IC50 for COc1cc(/C=C\c2cc(OC)c(OC)c(OC)c2)cc(N/C=C\C(=O)c2cc(OC)c(OC)c(OC)c2Br)c1OC [Compound 11y]
Solution: 1.58

Problem: // lookup IC50 for COc1ccc(C=Cc2cc(OC)c(OC)c(OC)c2)cc1N/C=C\C(=O)c1c[nH]c2ccccc12 [Compound 10v]
Solution: 0.53

Problem: // lookup IC50 for COc1ccc(C(=O)/C=C\Nc2cc(/C=C\c3cc(OC)c(OC)c(OC)c3)ccc2OC)cc1N [Compound 10u]
Solution: 0.52

Problem: // lookup IC50 for COc1ccc(C(=O)/C=C\Nc2c(/C=C\c3cc(OC)c(OC)c(OC)c3)ccc(OC)c2O)cc1N [Compound 16u]
Solution: 2.51

Problem: // lookup IC50 for COc1ccc(C(=O)/C=C\Nc2c(/C=C\c3cc(OC)c(OC)c(OC)c3)ccc(OC)c2O)cc1[N+](=O)[O-] [Compound 16t]
Solution: 1.66

Problem: // lookup IC50 for COc1ccc(C(=O)/C=C\Nc2cc(/C=C\c3cc(OC)c(OC)c(OC)c3)ccc2OC)cc1O [Compound 10q]
Solution: 0.23

Problem: // lookup IC50 for COc1ccc(C(=O)/C=C\Nc2cc(/C=C\c3cc(OC)c(OC)c(OC)c3)cc(OC)c2OC)cc1O [Compound 11q]
Solution: 1.91

Problem: // lookup IC50 for COc1ccc(C(=O)/C=C\Nc2cc(/C=C\c3cc(OC)c(OC)c(OC)c3)cc(OC)c2OC)cc1[N+](=O)[O-] [Compound 11t]
Solution: 1.2

Problem: // lookup IC50 for COc1ccc(/C=C\c2cc(OC)c(OC)c(OC)c2)cc1N/C=C\C(=O)c1cc(OC)c(OC)c(OC)c1 [Compound 10x]
Solution: 0.26

Problem: // lookup IC50 for COc1ccc(C(=O)/C=C\Nc2c(/C=C\c3cc(OC)c(OC)c(OC)c3)ccc(OC)c2O)cc1O [Compound 16q]
Solution: 4.17

Problem: // lookup IC50 for COc1ccc(/C=C\c2cc(OC)c(OC)c(OC)c2)cc1N/C=C\C(=O)c1ccc(OC(F)(F)F)cc1 [Compound 10o]
Solution: 0.26

Problem: // lookup IC50 for COc1ccc(/C=C\c2cc(OC)c(OC)c(OC)c2)c(N/C=C\C(=O)c2cc(OC)c(OC)c(OC)c2)c1O [Compound 16x]
Solution: 0.56

Problem: // lookup IC50 for COc1cc(C=Cc2cc(OC)c(OC)c(OC)c2)cc(N/C=C\C(=O)c2cn(C)c3ccccc23)c1OC [Compound 11w]
Solution: 5.89

Origin of the recorded values: patent US9487482B2
